# tested_on: T1, biotin-labeled cynomolgus monkey CD137 fused to human IgG1 Fc fragment (cynomolgus monkey; human, UniProt Q07011 24-186, limits assumed, biotin-labeled)
# T1 construct: also called cyno CD137-Fc; not shown: human IgG1 Fc fragment
# T1 chain: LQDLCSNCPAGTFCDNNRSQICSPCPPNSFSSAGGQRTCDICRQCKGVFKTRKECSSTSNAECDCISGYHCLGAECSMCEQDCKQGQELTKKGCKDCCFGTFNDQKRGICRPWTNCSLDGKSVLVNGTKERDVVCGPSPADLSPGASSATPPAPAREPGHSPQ
# measurement_protocol: ELISA, IgG
attribute_measured: binding result

response.value for dBBDu196 (antibody, IgG1, V domains shown, IgG1) VH: QVQLVESGGGLVQPGRSLRLSCAASGFTFSNAWMHWVRQAPGKGLEWVAQIKDRGNAYNAYYAESVKGRFTISRDDSKNSIYLQMNSLKTEDTAVYYCHYVHYASASTVLPAFGVDAWGQGTTVTVSS VL: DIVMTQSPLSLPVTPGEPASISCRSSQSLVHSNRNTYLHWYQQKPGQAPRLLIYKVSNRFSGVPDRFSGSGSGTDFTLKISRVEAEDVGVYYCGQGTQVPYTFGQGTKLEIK (field: binding result) = binds

response.value for dBBDu199 (antibody, IgG1, V domains shown, IgG1) VH: QVQLVESGGGLVQPGRSLRLSCAASGFTFSNAWMHWVRQAPGKGLEWVAQIKDKQSGYNTYYAPSVKGRFTISRDDSKNSIYLQMNSLKTEDTAVYYCHYVHYASASTVLPAFGVDAWGQGTTVTVSS VL: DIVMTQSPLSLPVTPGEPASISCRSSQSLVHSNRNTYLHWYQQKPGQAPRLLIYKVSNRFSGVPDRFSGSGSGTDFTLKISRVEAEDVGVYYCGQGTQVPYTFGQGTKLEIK (field: binding result) = binds

response.value for dBBDu173 (antibody, IgG1, V domains shown, IgG1) VH: QVQLVESGGGLVQPGRSLRLSCAASGFTFSNAWMHWVRQAPGKGLEWVAQIKDKGNLYAAYYAPSVKGRFTISRDDSKNSIYLQMNSLKTEDTAVYYCHYVHYASAGGGLSAYGVDAWGQGTTVTVSS VL: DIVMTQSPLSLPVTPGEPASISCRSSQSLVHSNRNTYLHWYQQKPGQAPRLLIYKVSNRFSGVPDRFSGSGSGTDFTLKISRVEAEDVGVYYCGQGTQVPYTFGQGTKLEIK (field: binding result) = binds
